Tested on: M14 melanoma
experiment: NCI tumour cell line growth inhibition, 48 h
endpoint-name: TGI

The value of TGI measured for the compound "CCOC(=O)C(C(=O)OCC)S(C)(=O)=O" turned out to be > 100 µM

The value of TGI measured for the compound O=C(OCC1CC(C2(O)CCCCC2)C(=O)O1)c1ccccc1 (stereo unspecified) turned out to be > 100 µM

The value of TGI measured for the compound "N#CCCN(c1ccc(C=Nc2ccc(C(=O)O)cc2)cc1)S(=O)(=O)c1ccccc1" turned out to be > 100 µM

The value of TGI measured for the compound "O=c1[nH][nH]c(=O)c2c(O)c(-c3ccccc3)ncc12" turned out to be 385 µM

The value of TGI measured for the compound O=C(CS(=O)c1nc2ccccc2nc1-c1ccccc1)Nc1ccc(Cl)cc1 (stereo unspecified) turned out to be > 100 µM

The value of TGI measured for the compound CCOC1Oc2ccccc2C(=O)/C1=C\Nc1ccc(C(=O)O)c(O)c1 (stereo unspecified) turned out to be 36 µM

The value of TGI measured for the compound "O=C(O)c1ccc(Nc2nc3ccc(C(F)(F)F)cc3nc2-c2ccccc2)cc1" turned out to be > 100 µM

The value of TGI measured for the compound CCCCCCCC(=O)OC(COC(=O)Cc1ccccc1)COC(=O)C(C)(C)C (stereo unspecified) turned out to be > 100 µM

The value of TGI measured for the compound "COc1ccccc1-c1ccc2c(N)c(C(=O)c3ccc4c(c3)OCO4)sc2n1" turned out to be 75 µM

The value of TGI measured for the compound "COc1cc2c(c(OC)c1)C(=O)C(=O)C(CC1(C)OCCCO1)=C2" turned out to be 24.3 µM

The value of TGI measured for the compound "Nc1nc(N)c(CCCCc2ccccc2)c(/C=C/c2ccc([N+](=O)[O-])cc2)n1" turned out to be 9.24 µM

The value of TGI measured for the compound "O=C(O)c1ccccc1/C=N\N(CCO)C1=NCCN1" turned out to be > 100 µM

The value of TGI measured for the compound "COC(=O)CCc1cc(OC)c2oc(-c3ccc(OC)c(OC)c3)c(CO)c2c1" turned out to be > 100 µM

The value of TGI measured for the compound "COc1ccc(Cl)cc1Nc1nc(C(F)(F)F)ccc1C(=O)N/N=C/c1ccccc1Cl" turned out to be 19.4 µM

The value of TGI measured for the compound "O=C(NCCCN1CCN(CCCNC(=O)c2cc(-c3ccccc3)nc3ccccc23)CC1)c1cc(-c2ccccc2)nc2ccccc12" turned out to be 5.63 µM

The value of TGI measured for the compound "Cc1cnc2c(c1)C(=O)N(c1ccc(Br)cc1)S2(=O)=O" turned out to be > 100 µM

The value of TGI measured for the compound "Cn1c2ccccc2c(=NNc2ccc(S(=O)(=O)N=C(N)N)cc2)c2ccccc21" turned out to be 30.1 µM

The value of TGI measured for the compound CN(CCO)c1nc(=O)c2c(n1C1OC(CO)C(O)C(O)C1O)CCCC2 (stereo unspecified) turned out to be > 100 µM

The value of TGI measured for the compound CC(=O)OC1CC2C(=O)CC1(C)C2(C)C (stereo unspecified) turned out to be > 100 µM

The value of TGI measured for the compound CC(=O)C(C(=O)C(=O)Nc1cc(Cl)c(Cl)cc1Cl)c1csc(N)n1 (stereo unspecified) turned out to be > 100 µM

The value of TGI measured for the compound "COc1ccc2nc3c([N+](=O)[O-])ccc4c3c(c2c1)N=CN4CCN(C)C" turned out to be 18.7 µM

The value of TGI measured for the compound "CC(C)OP(=O)(OC(C)C)/C(=N/Nc1ccc([N+](=O)[O-])cc1)NNC(=O)c1ccccc1" turned out to be > 100 µM

The value of TGI measured for the compound "CN(CCCCCCCCNc1ccnc2ccccc12)Cc1ccc(-c2ccc(-c3ccc(C#N)cc3)s2)cc1" turned out to be 1.56 µM

The value of TGI measured for the compound "Nc1n[nH]c(N)n1" turned out to be > 10000 µM

The value of TGI measured for the compound "CCOC(=O)C(CCSC)(CCSC)C(=O)OCC" turned out to be > 100 µM

The value of TGI measured for the compound CC(Cn1c(=O)oc2ccccc21)N(C)C (stereo unspecified) turned out to be > 100 µM

The value of TGI measured for the compound "CCCc1nn(C)c(CCC(=O)N(Cc2ccccc2)Cc2ccccc2)c1CC" turned out to be > 100 µM

The value of TGI measured for the compound COC(=O)/C(=N\Nc1nc(=S)[nH]n1N)C(C#N)c1ccc(Cl)cc1 (stereo unspecified) turned out to be > 100 µM

The value of TGI measured for the compound CSc1c(S(C)=O)c2ccccc2n1C (stereo unspecified) turned out to be > 100 µM

The value of TGI measured for the compound "N#C/C(=C\c1ccccc1F)C(=O)c1ccccc1" turned out to be > 100 µM

The value of TGI measured for the compound "CCOC(=O)Cc1ccc(Nc2nc3cc(F)c(F)cc3nc2C(=O)OCC)cc1" turned out to be > 100 µM
